- tgt: UniProtKB Q9NYK1
- run_description: HEK/293 TLR7 Cell Assay
- measurement_context: TLR7/NFKb HEK cells, R848 agonist 10 uM final concentration, Steady-Glo readout; read-out: TLR7 potency
Listed below: IC50 values for each entry.

Kindly note: UniProtKB Q9NYK1, C[C@@H]1CN(c2cnc(C#N)c3ncccc23)C[C@H](C(=O)NC[C@@H]2CN(C)CCO2)O1 [Example 275] , IC50 value reported: < 75 nM

Kindly note: UniProtKB Q9NYK1, C[C@H]1C[C@@H](NC(=O)C2(N)CCCNC2)CN(c2ccc(C(F)(F)F)c3ncccc23)C1 (stereo partly shown) [Example 180] , IC50 value reported: < 75 nM

Kindly note: UniProtKB Q9NYK1, C[C@@H](C(=O)N[C@@H]1C[C@H](C(F)(F)F)CN(c2ccc(C(F)(F)F)c3ncccc23)C1)N1CCN(C)CC1 (single isomer, unassigned) [Example 95] , IC50 value reported: < 75 nM

Kindly note: UniProtKB Q9NYK1, Cc1ncc(N2C[C@H](NC(=O)CN3CCN(C)CC3)C[C@H](C(F)(F)F)C2)c2cccnc12 [Example 70] , IC50 value reported: 75 to 150 nM

Kindly note: UniProtKB Q9NYK1, C[C@@H]1CN(c2cnc(C#N)c3ncccc23)C[C@H](C(=O)NCC2CCCN2C)O1 (stereo partly shown) [Example 273] , IC50 value reported: < 75 nM

Others:
Kindly note: UniProtKB Q9NYK1, C[C@H](O)CNC(=O)[C@H]1CN(c2ccc(C#N)c3nccnc23)C[C@@H](C(F)(F)F)O1 (single isomer, unassigned) [Example 286] , IC50 value reported: > 150 nM

Kindly note: UniProtKB Q9NYK1, C[C@@H]1CN(c2ccc(C#N)c3ncncc23)C[C@H](C(=O)NC[C@H]2CN(C)CCO2)O1 [Example 267] , IC50 value reported: < 75 nM

====

- tgt: TLR7 (Homo sapiens, UniProt Q9NYK1)
- Sequence (Q9NYK1 27-1049): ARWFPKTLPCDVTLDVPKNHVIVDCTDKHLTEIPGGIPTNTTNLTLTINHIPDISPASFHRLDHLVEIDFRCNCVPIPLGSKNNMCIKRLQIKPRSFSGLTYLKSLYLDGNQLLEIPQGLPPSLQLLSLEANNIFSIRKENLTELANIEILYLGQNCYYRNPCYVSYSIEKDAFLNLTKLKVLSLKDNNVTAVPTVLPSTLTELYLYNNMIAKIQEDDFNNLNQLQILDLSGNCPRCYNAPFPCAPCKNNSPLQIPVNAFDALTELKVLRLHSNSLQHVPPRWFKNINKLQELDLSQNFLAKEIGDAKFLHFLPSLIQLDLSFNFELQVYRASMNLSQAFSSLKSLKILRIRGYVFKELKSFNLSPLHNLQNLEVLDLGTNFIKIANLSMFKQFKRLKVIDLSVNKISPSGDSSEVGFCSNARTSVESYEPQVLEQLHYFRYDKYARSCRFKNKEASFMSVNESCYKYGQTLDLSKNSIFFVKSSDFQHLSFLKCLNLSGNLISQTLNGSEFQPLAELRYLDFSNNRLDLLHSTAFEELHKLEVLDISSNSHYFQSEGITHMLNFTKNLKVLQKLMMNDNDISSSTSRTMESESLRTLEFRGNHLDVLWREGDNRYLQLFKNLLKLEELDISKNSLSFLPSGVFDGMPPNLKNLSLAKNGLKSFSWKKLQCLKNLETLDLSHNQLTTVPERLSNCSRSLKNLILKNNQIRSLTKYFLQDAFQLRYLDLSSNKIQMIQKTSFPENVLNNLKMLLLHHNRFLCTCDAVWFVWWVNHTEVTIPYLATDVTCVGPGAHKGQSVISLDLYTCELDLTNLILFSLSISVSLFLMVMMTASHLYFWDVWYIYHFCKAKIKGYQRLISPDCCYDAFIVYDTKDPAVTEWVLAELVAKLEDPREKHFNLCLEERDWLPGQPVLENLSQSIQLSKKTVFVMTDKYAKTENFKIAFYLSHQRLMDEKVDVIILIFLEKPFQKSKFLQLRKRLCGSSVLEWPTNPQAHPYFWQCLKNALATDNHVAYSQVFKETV
- run_description: HEK/293 TLR7 Cell Assay
- measurement_context: TLR7/NFKb HEK cells, R848 agonist 10 uM final concentration, Steady-Glo readout; read-out: TLR7 potency
pIC50: −log10 of the molar value.
readout_type: pIC50

Examples with answers:
// recorded pIC50 for CN1CCC(F)(CNC(=O)[C@H]2CN(c3ccc(C#N)c4ncccc34)C[C@@H](C(F)(F)F)O2)CC1 (single isomer, unassigned) : > 7.12

// recorded pIC50 for "C[C@H]1C[C@@H](NC(=O)NCCN(C)C)CN(c2ccc(C(F)(F)F)c3nccnc23)C1" : > 7.12

// recorded pIC50 for "C[C@H](N)C(=O)N[C@@H]1C[C@H](C(F)(F)F)CN(c2ccc(C(F)(F)F)c3ncccc23)C1" : > 7.12

Others:
// recorded pIC50 for "C[C@H]1C[C@@H](NCC2(O)CCOCC2)CN(c2ccc(C(F)(F)F)c3nccnc23)C1" : > 7.12

// recorded pIC50 for "C[C@H]1C[C@@H](NC(=O)C[C@@H]2CCNC[C@@H]2F)CN(c2ccc(C#N)c3ncncc23)C1" : > 7.12

// recorded pIC50 for "C[C@H]1C[C@@H](NCCC(=O)N2CC(O)C2)CN(c2ccc(C(F)(F)F)c3ncccc23)C1" : > 7.12

// recorded pIC50 for N#Cc1ccc(N2C[C@@H](C(F)(F)F)O[C@@H](C(=O)NC[C@@H](O)CO)C2)c2nccnc12 (single isomer, unassigned) : 6.82 to 7.12

// recorded pIC50 for N#Cc1ccc(N2C[C@H](CN3CCC4(CC3)CC(=O)N4)O[C@H](C(F)(F)F)C2)c2nccnc12 (single isomer, unassigned) : > 7.12

// recorded pIC50 for "N#Cc1ccc(N2C[C@H](NC(=O)[C@H]3CCCN3)C[C@H](C(F)(F)F)C2)c2cccnc12" : 6.82 to 7.12

// recorded pIC50 for "C[C@@H]1CN(c2ccc(C#N)c3nccnc23)C[C@H](C(=O)NCCCS(C)(=O)=O)O1" : 6.82 to 7.12

====

- tgt: TLR7 (Homo sapiens, UniProt Q9NYK1)
- run_description: HEK/293 TLR7 Cell Assay
- measurement_context: TLR7/NFKb HEK cells, R848 agonist 10 uM final concentration, Steady-Glo readout; read-out: TLR7 potency
pIC50: −log10 of the molar value.
Listed below: pIC50 values for each entry.

Examples with answers:
// recorded pIC50 for N#Cc1ccc(N2C[C@H](N)CC(F)(F)C2)c2cccnc12 (single isomer, unassigned) [Example 198] : < 6.82

// recorded pIC50 for N#Cc1ncc(N2C[C@H](N)C[C@H](C(F)(F)F)C2)c2cccnc12 [Example 9] : > 7.12

Others:
// recorded pIC50 for C[C@@H]1CN(c2ccc(C#N)c3nccnc23)C[C@H](CSC[C@@H](O)CO)O1 (single isomer, unassigned) [Example 230] : > 7.12

// recorded pIC50 for CN(C)CCNC(=O)N[C@@H]1C[C@H](C(F)(F)F)CN(c2ccc(C(F)(F)F)c3ncccc23)C1 [Example 144] : 6.82 to 7.12

====

- tgt: TLR7 (Homo sapiens)
- run_description: HEK/293 TLR7 Cell Assay
- measurement_context: TLR7/NFKb HEK cells, R848 agonist 10 uM final concentration, Steady-Glo readout; read-out: TLR7 potency
Listed below: IC50 values for each entry.

Examples with answers:
// recorded IC50 for Cc1ccc(N2C[C@@H](C)C[C@@H](NC(=O)CN3CCN(C)CC3)C2)c2cccnc12 [Example 86] : 75 to 150 nM

// recorded IC50 for N#Cc1ccc(N2C[C@H](NCCNC(N)=O)C[C@H](C(F)(F)F)C2)c2cccnc12 [Example 40] : > 150 nM

// recorded IC50 for C[C@@H]1CN(c2ccc(C#N)c3nccnc23)C[C@H](CN2CCC(C(C)(C)O)C2)O1 (stereo partly shown) [Example 222] : < 75 nM

// recorded IC50 for N#Cc1ccc(N2C[C@@H](CN3CCC4(CC3)CC(=O)N4)O[C@@H](C(F)(F)F)C2)c2nccnc12 (single isomer, unassigned) [Example 364] : < 75 nM

Others:
// recorded IC50 for C[C@H]1C[C@@H](NCC(C)(C)O)CN(c2ccc(C#N)c3nccnc23)C1 [Example 16, formic acid] : < 75 nM

// recorded IC50 for C[C@@H]1CN(c2ccc(C#N)c3nccnc23)C[C@H](C(=O)NC[C@@H](O)CO)O1 [Example 233] : < 75 nM

// recorded IC50 for C[C@@H]1CN(c2ccc(C#N)c3nccnc23)C[C@H](CSCC(O)CO)O1 (stereo partly shown) [Example 227] : 75 to 150 nM

====

- tgt: TLR8 (Homo sapiens, UniProt Q9NR97)
- Construct: expressed in transfected cells; host or cells: HEK/293 reporter cells (NF-kB luciferase)
- Sequence (Q9NR97 27-1041): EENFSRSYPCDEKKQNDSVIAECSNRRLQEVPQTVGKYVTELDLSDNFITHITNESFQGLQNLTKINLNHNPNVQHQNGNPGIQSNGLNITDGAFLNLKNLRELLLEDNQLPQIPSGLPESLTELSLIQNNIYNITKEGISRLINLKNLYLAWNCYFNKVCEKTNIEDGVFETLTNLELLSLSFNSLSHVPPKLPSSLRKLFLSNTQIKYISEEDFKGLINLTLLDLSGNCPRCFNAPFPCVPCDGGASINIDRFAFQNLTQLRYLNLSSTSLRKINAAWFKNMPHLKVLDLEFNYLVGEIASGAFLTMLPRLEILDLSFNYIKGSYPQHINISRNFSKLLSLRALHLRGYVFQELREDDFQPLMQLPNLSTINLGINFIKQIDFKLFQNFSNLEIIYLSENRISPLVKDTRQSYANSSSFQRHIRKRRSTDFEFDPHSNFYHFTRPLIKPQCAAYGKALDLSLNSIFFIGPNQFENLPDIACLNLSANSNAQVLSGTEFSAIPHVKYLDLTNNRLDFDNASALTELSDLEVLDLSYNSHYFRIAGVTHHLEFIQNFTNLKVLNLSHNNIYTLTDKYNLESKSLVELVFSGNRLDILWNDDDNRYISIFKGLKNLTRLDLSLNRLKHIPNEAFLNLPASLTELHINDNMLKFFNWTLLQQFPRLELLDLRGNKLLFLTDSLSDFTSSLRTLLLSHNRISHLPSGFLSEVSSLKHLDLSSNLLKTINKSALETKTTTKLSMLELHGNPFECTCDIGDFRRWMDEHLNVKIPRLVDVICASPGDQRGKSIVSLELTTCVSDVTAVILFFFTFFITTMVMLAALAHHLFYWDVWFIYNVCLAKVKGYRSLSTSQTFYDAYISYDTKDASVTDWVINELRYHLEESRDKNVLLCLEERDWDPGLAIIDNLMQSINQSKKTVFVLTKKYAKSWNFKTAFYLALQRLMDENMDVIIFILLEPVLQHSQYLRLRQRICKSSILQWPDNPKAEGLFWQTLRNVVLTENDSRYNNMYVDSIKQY
- run_description: HEK/293 TLR8 Cell Assay
- Assay type: cell-based
- measurement_context: HEK cells, R848 agonist 30 uM final concentration, Steady-Glo readout; read-out: TLR8 potency
pIC50: −log10 of the molar value.
Listed below: pIC50 values for each entry.

Examples with answers:
// recorded pIC50 for N#Cc1ccc(N2C[C@@H](CN3CC(O)C3)O[C@@H](C(F)(F)F)C2)c2nccnc12 (single isomer, unassigned) : < 6.82

// recorded pIC50 for "C[C@H]1C[C@@H](NCCC(=O)N2CC(O)C2)CN(c2ccc(C(F)(F)F)c3ncccc23)C1" : 6.82 to 7.12

// recorded pIC50 for "C[C@H]1C[C@@H](NC(=O)CCN(C)C)CN(c2ccc(C(F)(F)F)c3nccnc23)C1" : > 7.12

// recorded pIC50 for "C[C@H]1C[C@@H](NC(=O)CCC2CCN(C)CC2)CN(c2ccc(C#N)c3ncncc23)C1" : 6.82 to 7.12

// recorded pIC50 for "C[C@H]1C[C@@H](NC(=O)[C@@H]2C[C@H](O)CN2)CN(c2ccc(C#N)c3nccnc23)C1" : > 7.12

Others:
// recorded pIC50 for C[C@H]1C[C@@H](NC(=O)[C@H](C)N2CCN(C)CC2)CN(c2ccc(C(F)(F)F)c3ncccc23)C1 (single isomer, unassigned) : > 7.12

// recorded pIC50 for C[C@@H]1CN(c2cnc(C#N)c3ncccc23)C[C@H](CNC(=O)[C@@]2(F)CCN(C)C2)O1 (single isomer, unassigned) : > 7.12

====

- tgt: TLR7 (Homo sapiens)
- run_description: HEK/293 TLR7 Cell Assay
- measurement_context: TLR7/NFKb HEK cells, R848 agonist 10 uM final concentration, Steady-Glo readout; read-out: TLR7 potency
pIC50: −log10 of the molar value. Counter-ions that a name gives are not always drawn.
readout_type: pIC50

Examples with answers:
// recorded pIC50 for C[C@@H](C(=O)N[C@@H]1C[C@H](C(F)(F)F)CN(c2ccc(C#N)c3nccnc23)C1)N1CCN(C)CC1 (single isomer, unassigned) : 6.82 to 7.12

// recorded pIC50 for "C[C@@H]1CN(c2cnc(C#N)c3ncccc23)C[C@H](CNCC2(F)CCOCC2)O1" : < 6.82

// recorded pIC50 for "C[C@H]1CN(c2ccc(C#N)c3nccnc23)C[C@H](CN2CCC(N3CCCC3)CC2)O1" : > 7.12

Others:
// recorded pIC50 for C[C@H]1C[C@@H](NCC2CCS(=O)(=O)C2)CN(c2ccc(C#N)c3nccnc23)C1 (some centres unmarked) : 6.82 to 7.12

// recorded pIC50 for Cc1c(F)cc(N2C[C@H](NC(=O)CC3C4CC3CN(C)C4)C[C@H](C(F)(F)F)C2)c2cccnc12 (some centres unmarked) : 6.82 to 7.12

// recorded pIC50 for "Cc1ccc(N2C[C@H](NC(=O)CC3(O)CCN(C)CC3)C[C@H](C(F)(F)F)C2)c2cccnc12" : > 7.12

// recorded pIC50 for C[C@@H]1CN(c2cnc(C#N)c3ncccc23)C[C@H](CNC(=O)C2(F)CCCNC2)O1 (some centres unmarked) : 6.82 to 7.12

// recorded pIC50 for CC(C(=O)N[C@@H]1C[C@H](C)CN(c2ccc(C#N)c3ncncc23)C1)N1CCN(C)CC1 (single isomer, unassigned) : 6.82 to 7.12

// recorded pIC50 for "C[C@@H]1CN(c2ccc(C#N)c3nccnc23)C[C@H](C(=O)N2CC3(C2)CS(=O)(=O)C3)O1" : < 6.82

// recorded pIC50 for "C[C@H]1C[C@@H](NCCNS(C)(=O)=O)CN(c2ccc(C(F)(F)F)c3ncccc23)C1" : > 7.12

// recorded pIC50 for CC(C(=O)N[C@@H]1C[C@H](C)CN(c2ccc(C(F)(F)F)c3ncccc23)C1)N1CCC(O)CC1 (single isomer, unassigned) : > 7.12

// recorded pIC50 for C[C@@H]1CN(c2cnc(C#N)c3ncccc23)C[C@H](CNC(=O)[C@@]2(F)CCN(C)C2)O1 (single isomer, unassigned) : < 6.82

// recorded pIC50 for Cc1ncc(N2C[C@@H](C)C[C@@H](NC(=O)CC3C4CC3CN(C)C4)C2)c2cccnc12 (some centres unmarked) : > 7.12

// recorded pIC50 for C[C@@H]1CN(c2ccc(C#N)c3nccnc23)C[C@H](CSC2CNC2)O1 [Example 225, hydrochloride] : > 7.12

// recorded pIC50 for "CCN(CC)C1CCN(C[C@H]2CN(c3ccc(C#N)c4nccnc34)C[C@@H](C)O2)CC1" : > 7.12

// recorded pIC50 for "C[C@H]1C[C@@H](NCCCS(N)(=O)=O)CN(c2ccc(C(F)(F)F)c3ncccc23)C1" : > 7.12

// recorded pIC50 for "C[C@@H]1CN(c2cnc(C(F)(F)F)c3ncccc23)C[C@H](CN2CCN(C)CC2)O1" : 6.82 to 7.12

// recorded pIC50 for "C[C@H]1C[C@@H](NS(=O)(=O)NC(=O)CC2CCN(C)CC2)CN(c2ccc(C(F)(F)F)c3ncccc23)C1" : 6.82 to 7.12

// recorded pIC50 for C[C@@H]1CN(c2ccc(C#N)c3nccnc23)C[C@H](C(=O)NCC2(F)CCNC2)O1 (some centres unmarked) : > 7.12

// recorded pIC50 for "C[C@@H]1CN(c2ccc(C#N)c3nccnc23)C[C@H](C(=O)NCC2(F)CCN(C)CC2)O1" : > 7.12

// recorded pIC50 for C[C@@H]1CN(c2ccc(C#N)c3nccnc23)C[C@H](C(=O)NCC2CN(C)CCO2)O1 (some centres unmarked) : > 7.12

// recorded pIC50 for "N#Cc1ccc(N2C[C@H](NC(=O)CO)C[C@H](C(F)(F)F)C2)c2cccnc12" : < 6.82

// recorded pIC50 for "CN1CCC(C(=O)N[C@@H]2C[C@H](C(F)(F)F)CN(c3ccc(C#N)c4ncccc34)C2)CC1" : > 7.12

// recorded pIC50 for N#Cc1ccc(N2C[C@@H](C(F)(F)F)O[C@@H](C(=O)NC[C@H](O)CO)C2)c2nccnc12 (single isomer, unassigned) : 6.82 to 7.12

// recorded pIC50 for "C[C@H]1C[C@@H](NCC2COC2)CN(c2ccc(C#N)c3nccnc23)C1" : > 7.12

// recorded pIC50 for "C[C@H]1C[C@@H](NCCNS(C)(=O)=O)CN(c2ccc(C(F)(F)F)c3nccnc23)C1" : > 7.12

This collection of values is drawn from patent US20210300940A1.
